Reference for the values: patent US20080214583A1

EXPERIMENTAL READOUT: melting point

Below, each entry is followed by its recorded melting point result.
SUBSTANCE SMILES	VAL
Cc1c(C)n(-c2cccc(Cl)c2)c2ncnc(Nc3cc(C(C)(C)C)nn3-c3cccc([N+](=O)[O-])c3)c12	189 to 190 °C
Cc1c(C)n(Cc2ccccc2)c2ncnc(NN=C3C(=O)Nc4c(Cl)ccc(Cl)c43)c12	298 °C
Cc1ccc2c(c1)C(=NNc1ncnc3c1c(C)c(C)n3-c1cccc(Cl)c1)C(=O)N2	302 to 303 °C

For the next question, use this molecule.
For the molecule shown here, Cc1c(C)n(CCCN2CCOCC2)c2ncnc(Nc3cc(C(C)(C)C)nn3-c3cccc([N+](=O)[O-])c3)c12 , give the reported melting point.
120.9 to 125.3 °C

###

Parameter melting point: see the listing below.

COMPOUND	VAL
Cc1c(C)n(-c2cccc(Cl)c2)c2ncnc(NN=C3C(=O)Nc4ccc(Br)cc43)c12 [Example 38]	292 to 294.5 °C
Cc1c(C)n(Cc2ccccc2)c2ncnc(NN=Cc3ccc(C(F)(F)F)cc3)c12 [Example 26]	165 to 166 °C
Cc1c(C)n(Cc2ccccc2)c2ncnc(C(=NN)c3ccc(O)c([N+](=O)[O-])c3)c12 [Example 28]	202 to 205 °C

For the next question, use this compound.
For the compound shown here, Cc1c(C)n(-c2cccc(Cl)c2)c2ncnc(NN=C3C(=O)Nc4ccc(OC(F)(F)F)cc43)c12 [Example 44] , give the reported melting point.
262 to 276 °C

###

Parameter melting point: see the listing below.

Below, each entry is followed by its recorded melting point result.
SUBSTANCE SMILES	EXPERIMENTAL READOUT	VAL
N#Cc1c(-c2ccccc2)c(-c2ccccc2)n(Cc2ccccc2)c1Nc1ncnc2c1c1ccccc1n2Cc1ccccc1	melting point	> 90 °C
Cc1c(C)n(-c2cccc(Cl)c2)c2ncnc(NN=C3C(=O)Nc4c(Cl)ccc(Cl)c43)c12	melting point	284 to 285 °C
Cc1cc(C(=NN)c2ncnc3c2c(C)c(C)n3Cc2ccccc2)cc(C)c1O	melting point	237 to 240 °C

For the compound shown here, Cc1c(C)n(Cc2ccccc2)c2ncnc(NN=C3C(=O)Nc4ccc(Cl)cc43)c12 , give the reported melting point.
302 to 303 °C

One more compound: Cc1c(C)n(Cc2ccccc2)c2ncnc(Nc3c(C#N)c(-c4ccccc4)c(-c4ccccc4)n3Cc3ccccc3)c12
197.1 to 197.6 °C

One more compound: Cc1c(C#N)c(Nc2ncnc3c2c(C)c(C)n3-c2cccc(Cl)c2)n(Cc2ccccc2)c1C
228.1 to 229 °C

One more compound: Cc1c(C)n(-c2cccc(Cl)c2)c2ncnc(NN=C3C(=O)Nc4ccccc43)c12
281 to 293 °C

One more compound: Cc1c(C)n(-c2cccc(Cl)c2)c2ncnc(NN=C3C(=O)Nc4ccc(Cl)cc43)c12
314 to 315 °C

One more compound: COc1cc(C(=NN)c2ncnc3c2c(C)c(C)n3Cc2ccccc2)ccc1O
220 to 221 °C

One more compound: Cc1c(C)n(Cc2ccccc2)c2ncnc(NN=C3C(=O)Nc4cc(Cl)cc(Cl)c43)c12
299 °C

One more compound: Cc1c(C)n(-c2cccc(Cl)c2)c2ncnc(Nc3c(C#N)c(-c4ccccc4)c(-c4ccccc4)n3Cc3ccccc3)c12
187.4 to 189.3 °C
